Hi there, I'd appreciate the recorded z-score for every entry that follows.
# Test method notes: optical density change of DRC41 E. coli – strain DRC41, OD650, 24 h, E. coli filamentation project, primary screen (AID 1093);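 note: MC1000 strain lacking acrAB efflux and sulA so SOS filamentation is blocked; test concentration not given here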
# Measurement conditions: E. coli DRC41 growth, higher = more signal, called active from +8 up or from −8 down
// response body must contain only the number

Query :: Dear colleague, I am looking for the recorded z-score of the following compound: COc1ccc([Si](C)(C)[C@H]2[C@H](CC(=O)N3Cc4ccccc4C[C@H]3CO)O[C@@]3(C(=O)N(C)c4c(Br)cc(C)cc43)[C@@H]2C)cc1
Result :: -0.498

Query :: Dear colleague, I am looking for the recorded z-score of the following compound: CCCCC(O)C1C=CC2C(=O)N(c3ccccc3)C(=O)C2N1Nc1ccccc1 (stereo unspecified)
Result :: -0.193

Query :: Dear colleague, I am looking for the recorded z-score of the following compound: C=C(COC)/C(=C/C[C@H](OC(C)=O)c1ccccc1OCCO)c1cc(C(=O)OC)ccc1OC
Result :: 0.952

Query :: Dear colleague, I am looking for the recorded z-score of the following compound: [N-]=[N+]=Nc1ccccc1C[C@@]1(C(=O)NCC(O)CO)N=C(c2ccc(OCCCO)cc2)O[C@@H]1c1ccccc1 (stereo partly specified)
Result :: 0.883

Query :: Dear colleague, I am looking for the recorded z-score of the following compound: CN1C(=O)[C@@H]2[C@@H](CC(COc3ccccc3)=C3[C@@H](CCc4ccccc4)OB(O)C[C@@H]32)C1=O
Result :: -0.372

Query :: Dear colleague, I am looking for the recorded z-score of the following compound: O=C(NC1CC1)[C@@H]1c2ccccc2C(=O)N(Cc2ccc(OC(F)(F)F)cc2)[C@H]1c1ccc(CO)cc1
Result :: 0.577

Query :: Dear colleague, I am looking for the recorded z-score of the following compound: CCCNC(=O)[C@@]1(c2ccc([N+](=O)[O-])cc2)CC(=O)N(C(C)C)[C@@H]1c1ccc(CO)cc1
Result :: 0.353

Query :: Dear colleague, I am looking for the recorded z-score of the following compound: C=C(CCCC)/C(=C/C[C@@H](OC(C)=O)c1ccc(CO)o1)c1cnc2ccccc2c1
Result :: 0.688

Query :: Dear colleague, I am looking for the recorded z-score of the following compound: O=C1O[C@@H](c2ccccc2)[C@@H](c2ccccc2)N2[C@@H](c3ccc(OCCO)cc3)[C@]3(C(=O)Nc4ccc(C#CC5(O)CCCCCC5)cc43)[C@@H](C(=O)Nc3nc4ccccc4s3)[C@H]12
Result :: 0.799

Query :: Dear colleague, I am looking for the recorded z-score of the following compound: CN(C)c1ccc(C(O)C2C=CC3C(=O)N(Cc4ccccc4)C(=O)C3N2n2cnnc2)cc1 (stereo unspecified)
Result :: 0.372

Query :: Dear colleague, I am looking for the recorded z-score of the following compound: CC(C)(C)OC(=O)CC[C@]1(C(=O)NCC(O)CO)N=C(c2ccc(OCCCO)cc2)O[C@H]1c1ccccc1N=[N+]=[N-] (stereo partly specified)
Result :: 0.821

Query :: Dear colleague, I am looking for the recorded z-score of the following compound: CCCCC(=C=CC[C@H](O)c1ccc(CO)o1)CCO
Result :: -0.14

Query :: Dear colleague, I am looking for the recorded z-score of the following compound: CCOC(=O)C[C@H]1[C@H](OC(=O)c2ccccc2-c2ccccc2)[C@@H](NC(=O)C2CCCCC2)c2cc(OCCCO)ccc2N1C(=O)c1ccc2ccccc2n1
Result :: -1.06

Query :: Dear colleague, I am looking for the recorded z-score of the following compound: COc1ccc(C(O)C2C=CC3C(=O)N(C)C(=O)C3N2N(c2ccccc2)c2ccccc2)cc1 (stereo unspecified)
Result :: -0.994

Query :: Dear colleague, I am looking for the recorded z-score of the following compound: COc1ccc([Si](C)(C)[C@@H]2[C@@H](CC(=O)N3CCC[C@H]3CO)O[C@]3(C(=O)N(Cc4cccc(N5CCCCC5=O)c4)c4ccccc43)[C@H]2C)cc1
Result :: 0.807

Query :: Dear colleague, I am looking for the recorded z-score of the following compound: O=C1C2C=CC(C(O)c3ccc([N+](=O)[O-])cc3)N(Nc3ccccc3F)C2C(=O)N1c1ccccc1 (stereo unspecified)
Result :: -0.774
